- experimental system: parathyroid cell calcium receptor (Bos taurus)
- Sequence (P35384 21-1085 limits assumed): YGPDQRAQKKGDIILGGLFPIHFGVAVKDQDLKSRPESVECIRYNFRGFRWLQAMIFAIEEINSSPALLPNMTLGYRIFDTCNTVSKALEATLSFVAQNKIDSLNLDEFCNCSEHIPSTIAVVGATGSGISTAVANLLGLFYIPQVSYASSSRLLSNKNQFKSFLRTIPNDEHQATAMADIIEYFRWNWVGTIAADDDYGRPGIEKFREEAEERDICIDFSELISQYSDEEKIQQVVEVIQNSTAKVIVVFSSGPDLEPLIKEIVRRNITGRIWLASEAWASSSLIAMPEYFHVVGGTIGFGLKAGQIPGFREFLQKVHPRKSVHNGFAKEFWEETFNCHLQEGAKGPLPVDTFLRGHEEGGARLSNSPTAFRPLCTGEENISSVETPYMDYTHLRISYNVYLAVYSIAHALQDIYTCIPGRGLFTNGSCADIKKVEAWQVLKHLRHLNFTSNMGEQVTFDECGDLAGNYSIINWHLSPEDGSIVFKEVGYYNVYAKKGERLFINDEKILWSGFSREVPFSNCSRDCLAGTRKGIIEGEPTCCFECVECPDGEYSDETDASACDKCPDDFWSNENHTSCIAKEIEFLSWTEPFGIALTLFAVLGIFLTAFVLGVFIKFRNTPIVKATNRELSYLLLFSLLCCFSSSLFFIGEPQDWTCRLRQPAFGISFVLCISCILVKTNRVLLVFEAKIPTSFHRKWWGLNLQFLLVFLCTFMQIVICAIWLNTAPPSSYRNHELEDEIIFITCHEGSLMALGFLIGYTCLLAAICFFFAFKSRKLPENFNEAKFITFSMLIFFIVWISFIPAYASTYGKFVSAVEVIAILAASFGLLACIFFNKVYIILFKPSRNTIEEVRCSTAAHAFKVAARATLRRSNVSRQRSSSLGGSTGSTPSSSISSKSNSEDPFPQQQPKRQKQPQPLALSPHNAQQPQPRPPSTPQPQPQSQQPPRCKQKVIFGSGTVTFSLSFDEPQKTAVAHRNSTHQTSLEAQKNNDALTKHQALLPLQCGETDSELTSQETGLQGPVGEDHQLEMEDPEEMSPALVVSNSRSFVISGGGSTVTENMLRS
- experiment description: cell-based
- Type: cell-based
- condition set: Table 7; parathyroid cell calcium receptor; read-out: EC50
Consider the following molecules and their measured EC50 readings.
property name: EC50

In [3]: df
Out[3]:
                                    molecule  property_name     value
 0  c1ccc(CNCCC(c2ccccc2)c2ccccc2)cc1 [Compound 1A]           EC50    166 µM
 1  C[C@H](NCCC(c1ccccc1)c1ccccc1)c1ccccc1 [S-Fendiline]           EC50   > 15 µM
 2  CC(NCCCCc1ccccc1)c1ccccc1 (stereo not drawn) [Compound 1S]           EC50    128 µM
 3  COc1cccc([C@H](C)NCCCc2ccc(C)cc2)c1 [Compound 8Y]           EC50   > 30 µM
 4  CCC(NCCC(c1ccccc1)c1ccccc1)c1ccccc1 (stereo not drawn) [Compound 1E]           EC50    123 µM
 5  COc1ccc(OC)c([C@H](C)NCCCc2ccccc2)c1 [7Z(S-)]           EC50  > 100 µM
 6  COc1cccc([C@H](C)NCCCc2ccccc2)c1 [NPS S-467]           EC50   > 30 µM
 7  C[C@H](NCCCc1ccccc1)C1CCCCC1 [Compound 7Y]           EC50   > 30 µM
 8  COc1cccc([C@H](C)NCCCc2ccc(OC)c(OC)c2)c1 [Compound 20K]           EC50   > 30 µM
 9  C[C@@H](NCCC(c1ccccc1)c1ccccc1)c1ccccc1 [R-Fendiline]           EC50      9 µM
10  CC(NCCCc1ccccc1)c1ccccc1 (stereo not drawn) [Compound 1D]           EC50     48 µM
11  COc1ccc(OC)c([C@@H](C)NCCCc2ccccc2)c1 [7Z(R-)]           EC50   > 30 µM
